B1: Histone H1t, residues 44 to 112; numbered along this chain, P22492 (parent)
chain: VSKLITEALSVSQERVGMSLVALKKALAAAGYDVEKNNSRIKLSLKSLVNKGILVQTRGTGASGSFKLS

- Variants of: B1
- test.protocol: abundance fitness (aPCA) (normalised: wild type 0, dead -1); higher = more abundant; growth selection in yeast, the domain comes from the species named
- condition.set: Homo sapiens
// reported abundance fitness for each item listed
Form: value (number only, do not type unit).

Some entries whose results are on file:
V55F :: -0.114
V34C :: -0.179
N38D :: -0.632
G31D :: -0.752
L45R :: -0.915

Enquiry: Which abundance fitness reading was recorded for the variant `N50M` ?
Return: -0.394

Enquiry: Which abundance fitness reading was recorded for the variant `S44L` ?
Return: -0.108

Enquiry: Which abundance fitness reading was recorded for the variant `T57M` ?
Return: -0.048

Enquiry: Which abundance fitness reading was recorded for the variant `K25I` ?
Return: -0.697

Enquiry: Which abundance fitness reading was recorded for the variant `A22F` ?
Return: -0.413

Enquiry: Which abundance fitness reading was recorded for the variant `E35Y` ?
Return: -0.036

Enquiry: Which abundance fitness reading was recorded for the variant `V34H` ?
Return: -0.4

Enquiry: Which abundance fitness reading was recorded for the variant `L68F` ?
Return: -0.1

Enquiry: Which abundance fitness reading was recorded for the variant `G61K` ?
Return: 0.023

Enquiry: Which abundance fitness reading was recorded for the variant `T57N` ?
Return: -0.058

Enquiry: Which abundance fitness reading was recorded for the variant `A30S` ?
Return: -0.09

Enquiry: Which abundance fitness reading was recorded for the variant `S44W` ?
Return: -0.426

Enquiry: Which abundance fitness reading was recorded for the variant `K67A` ?
Return: -0.028

Enquiry: Which abundance fitness reading was recorded for the variant `A30M` ?
Return: 0.021

Enquiry: Which abundance fitness reading was recorded for the variant `L54Q` ?
Return: 0.092

Enquiry: Which abundance fitness reading was recorded for the variant `L54V` ?
Return: 0.158

Enquiry: Which abundance fitness reading was recorded for the variant `A28F` ?
Return: -0.231
